meta.source: patent US6407103B2

Form field: melting point (one value per entry).
Structures can show the parent of a compound that is named as a salt.
Write down the numeric answer in °C and omit the unit.

Example compounds with recorded melting point:
compound	scale.unit	melting point
CN(C)C1CCN(c2ccc(-c3[nH]nc4c3C(=O)c3c(NC(=O)NN5CCOCC5)cccc3-4)cc2)CC1 (as salt: TFA) [Example CCXLVIII]	°C	258
N[C@H]1CC[C@@H](C(=O)N2CCC(c3[nH]nc4c3C(=O)c3c(NC(=O)NN5CCOCC5)cccc3-4)CC2)CC1 (as salt: TFA) [Example CCLXXXII]	°C	212
O=C(Nc1cccc2c1C(=O)c1c-2n[nH]c1[C@H]1CC[C@H](C(=O)O)CC1)NN1CCOCC1 (as salt: TFA) [Example CCC]	°C	264

Please indicate melting point recorded for CCN(CC)c1ccc(NC(=O)c2ccc(-c3[nH]nc4c3C(=O)c3c(NC(=O)NN5CCOCC5)cccc3-4)s2)cc1 (as salt: TFA) [Example CXCVIII]
198

Please indicate melting point recorded for Cn1ccc(-c2[nH]nc3c2C(=O)c2c(NC(=O)NN4CCOCC4)cccc2-3)c1 [Example CC]
301

Please indicate melting point recorded for COc1ccccc1-c1[nH]nc2c1C(=O)c1c(NC(C)=O)cccc1-2 [Example XV]
276

Please indicate melting point recorded for CN(C)c1ccc(C(=O)N2CCC(c3[nH]nc4c3C(=O)c3c(NC(=O)NN5CCOCC5)cccc3-4)CC2)cc1 (as salt: TFA) [Example CCXCVIII]
189

Please indicate melting point recorded for CCc1[nH]nc2c1C(=O)c1c(NC(=O)NN3CCOCC3)cccc1-2 (as salt: TFA) [Example CCLIX]
253
